# SYSTEM NAME: beta-actin (monomeric, G-actin) (human, UniProt P60709 2-375)
# PROTOCOL SUMMARY: fluorescence turn-on of BHQ1 probe; apparent; 10 mM Mg2+, BHQ1 probe; 10 mM Tris-HCl pH 7.6, 100 mM KCl, 10 mM MgCl2 (Kd assays), room temperature; RNA 3 uM with actin 3 uM preincubated 30 min at 25 C, then probe 1 uM (final) in 2
pKd: −log10 of the molar value.
METRIC NAME: pKd

>>> obs_value("AcP-TRap4 (structured_RNA) RNA: GGAUCCAAGCUUGUUUGGCCCAAUUCCUCGUCUUCAGACUGGCCUAGAUAAAUUCGGAGCUUGUUCACAACCUCUACUUCCUGCUUUCGACGGAGAAUUC")
6.70
>>> obs_value("AcP-TRap1 (structured_RNA) RNA: GGAUCCAAGCUUGUUUGGCUCCAACCGUCCCCGCGUAUAUGGCCUAGAUAAAUUCGGAGCUUUUUGCCCAUCCUCAUAUAUUGCUUUCGACGGAGAAUUC")
5.82
>>> obs_value("AcP-TRap3 (structured_RNA) RNA: GGAUCCAAGCUUGUUUGGCCCAAUAACGUCGAUUGAUUGUGGCCUAGAUAAAUUCGGAGCUUUCAAUGAAUUACACAACAAUGCUUUCGACGGAGAAUUC")
6.00
>>> obs_value("AcP-TRap2 (structured_RNA) RNA: GGAUCCAAGCUUGUUUGGCAUUCCACGUCGAUAAAAGAUUGGCCUAGAUAAAUUCGGAGCUUAAAAUUCCCUCCUAUCUUUUGCUUUCGACGGAGAAUUC")
6.22

Values from paper PMC8682759
